# TARGET_ENTITY: AMPK 111 (Homo sapiens, UniProt Q13131+Q9Y478)
# Construct: open reading frames encoding the full-length α1, β1 and δ1 subunits of human AMPK; made in house; host or cells: E. coli BL21-CodonPlus (DE3)-RIPL, pET-14b
# Sequence (Q13131 whole entry): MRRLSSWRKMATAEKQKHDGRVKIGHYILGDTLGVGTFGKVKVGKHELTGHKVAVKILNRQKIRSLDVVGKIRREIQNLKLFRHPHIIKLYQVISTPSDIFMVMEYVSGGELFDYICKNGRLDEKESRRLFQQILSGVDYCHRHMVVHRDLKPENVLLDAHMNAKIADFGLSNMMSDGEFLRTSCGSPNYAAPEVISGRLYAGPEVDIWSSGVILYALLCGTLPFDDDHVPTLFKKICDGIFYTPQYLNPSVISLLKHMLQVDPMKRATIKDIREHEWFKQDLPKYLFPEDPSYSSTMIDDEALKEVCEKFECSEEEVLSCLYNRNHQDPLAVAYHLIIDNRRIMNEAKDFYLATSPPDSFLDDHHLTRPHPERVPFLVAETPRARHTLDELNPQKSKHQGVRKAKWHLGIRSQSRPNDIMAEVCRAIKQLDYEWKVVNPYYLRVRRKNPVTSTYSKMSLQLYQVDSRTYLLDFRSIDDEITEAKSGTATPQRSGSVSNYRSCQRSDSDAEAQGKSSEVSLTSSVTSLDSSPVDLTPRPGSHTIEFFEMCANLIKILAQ
# Sequence (Q9Y478 whole entry): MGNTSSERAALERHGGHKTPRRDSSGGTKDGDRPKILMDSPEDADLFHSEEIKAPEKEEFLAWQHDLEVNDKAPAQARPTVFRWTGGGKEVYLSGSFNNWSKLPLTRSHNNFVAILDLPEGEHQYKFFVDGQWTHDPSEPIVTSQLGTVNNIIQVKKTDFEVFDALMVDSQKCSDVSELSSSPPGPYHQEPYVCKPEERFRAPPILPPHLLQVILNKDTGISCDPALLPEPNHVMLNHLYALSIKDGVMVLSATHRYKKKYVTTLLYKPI
# Sequence (P54619 whole entry partner): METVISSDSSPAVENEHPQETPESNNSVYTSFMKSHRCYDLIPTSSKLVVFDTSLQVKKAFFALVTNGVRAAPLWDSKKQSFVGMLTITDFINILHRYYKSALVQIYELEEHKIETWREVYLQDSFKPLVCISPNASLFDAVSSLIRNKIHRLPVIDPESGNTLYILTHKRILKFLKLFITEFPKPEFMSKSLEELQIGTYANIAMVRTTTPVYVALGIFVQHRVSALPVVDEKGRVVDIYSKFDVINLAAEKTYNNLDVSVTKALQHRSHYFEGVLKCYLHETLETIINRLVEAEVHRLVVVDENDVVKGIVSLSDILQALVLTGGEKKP
# EXPERIMENT_NOTES: Biochemical profiling of AMPK activators by AMPK111 (HTRF/TR-FRET assay, SAMS peptide, PP2A dephosphorylation protection)
# CONDITION: phosphorylated AMPK 111; maximal activation
EXPERIMENTAL_ENDPOINT: Emax (%)

>>> df
                                    molecule  experimental_endpoint  observed_value
 0  O=C(O)CCc1n[nH]c2cc(Cl)c(-c3ccc(-c4ccccc4O)cc3F)cc12                   Emax              83
 1  COc1c(Cl)ccc(-c2ccc(-c3cc4c(CCC(=O)O)n[nH]c4cc3Cl)cc2)c1O                   Emax              73
 2  O=C(O)CCc1n[nH]c2cc(Cl)c(-c3ccc(-c4ccc(F)c(F)c4O)cc3)cc12                   Emax              73
 3  COC(=O)c1ccc(-c2ccc(-c3cc4c(CCC(=O)O)n[nH]c4cc3Cl)cc2)c(O)c1                   Emax              84
 4  O=C(O)CNc1n[nH]c2cc(Cl)c(-c3ccc(-c4ccccc4O)cc3)cc12                   Emax              79
 5  O=C(O)CCc1n[nH]c2cc(Cl)c(-c3ccc(-c4ccccc4O)cc3)nc12                   Emax              86
 6  O=C(O)CCc1n[nH]c2cc(Cl)c(-c3ccc(-c4ccc(C(=O)NCCCO)cc4)cc3)cc12                   Emax              66
 7  CC(C)Oc1cccc(-c2ccc(-c3cc4c(CCC(=O)O)n[nH]c4cc3Cl)cc2)c1O                   Emax              70
 8  COc1ccc(F)c(-c2ccc(-c3cc4c(CCC(=O)O)n[nH]c4cc3Cl)cc2)c1O                   Emax              77
 9  O=C(O)CCc1n[nH]c2cc(Cl)c(-c3ccc(-c4cccc(Cl)c4O)cc3)cc12                   Emax              82
10  CS(=O)(=O)c1ccc(-c2ccc(-c3cc4c(CCC(=O)O)n[nH]c4cc3Cl)cc2)cc1                   Emax              79
11  CNC(=O)c1ccc(-c2ccc(-c3cc4c(CCC(=O)O)n[nH]c4cc3Cl)cc2)c(O)c1                   Emax              71
12  COc1ccc(-c2ccc(-c3cc4c(CCC(=O)O)n[nH]c4cc3Cl)cc2)c(O)c1OC                   Emax              85
13  NC(=O)c1ccc(-c2ccc(-c3cc4c(CCC(=O)O)n[nH]c4cc3Cl)cc2)c(O)c1                   Emax              64
14  O=C(O)CCc1n[nH]c2cc(Cl)c(-c3ccc(-c4ccccc4)cc3)cc12                   Emax              71
15  NC(=O)c1ccc(-c2ccc(-c3cc4c(CCC(=O)O)n[nH]c4cc3Cl)cc2)cc1                   Emax              59
16  O=C(O)CCc1n[nH]c2cc(Cl)c(-c3ccc(-c4ccc(C(=O)O)cc4O)cc3)cc12                   Emax              68
17  O=C(O)CCCc1n[nH]c2cc(Cl)c(-c3ccc(-c4ccccc4O)cc3)cc12                   Emax              80
18  O=C(O)CCc1n[nH]c2cc(Cl)c(-c3ccc(-c4c(Cl)ccc(F)c4O)cc3)cc12                   Emax              85
19  NC(=O)Cc1ccc(-c2ccc(-c3cc4c(CCC(=O)O)n[nH]c4cc3Cl)cc2)cc1                   Emax              80
20  O=C(O)CCc1n[nH]c2cc(Cl)c(-c3ccc(-c4c(O)cccc4Cl)cc3)cc12                   Emax              82
21  O=C(O)CCc1n[nH]c2cc(Cl)c(-c3ccc(-c4ccc(F)cc4O)cc3)cc12                   Emax              83
22  O=C(O)CCc1n[nH]c2cc(Cl)c(-c3ccc(-c4ccc(Cl)cc4O)cc3)cc12                   Emax              76
23  O=C(O)CCc1n[nH]c2cc(Cl)c(-c3ccc(-c4ccc(OC(F)F)cc4O)cc3)cc12                   Emax              73
24  Cc1ccc(F)c(O)c1-c1ccc(-c2cc3c(CCC(=O)O)n[nH]c3cc2Cl)cc1                   Emax              82
25  O=C(O)CCc1n[nH]c2cc(Cl)c(-c3ccc(-c4ccncc4O)cc3)cc12                   Emax              71
26  COCc1ccc(-c2ccc(-c3cc4c(CCC(=O)O)n[nH]c4cc3Cl)cc2)c(O)c1                   Emax              76
27  NC(c1ccc(-c2ccc(-c3cc4c(CCC(=O)O)n[nH]c4cc3Cl)cc2)c(O)c1)C(F)(F)F (centres unmarked)                   Emax              86
28  N#Cc1cc2[nH]nc(CCC(=O)O)c2cc1-c1ccc(-c2ccccc2O)cc1                   Emax              67
29  COc1cc(O)c(-c2ccc(-c3cc4c(CCC(=O)O)n[nH]c4cc3Cl)cc2)c(Cl)c1                   Emax              74
30  COc1ccc(Cl)c(-c2ccc(-c3cc4c(CCC(=O)O)n[nH]c4cc3Cl)cc2)c1O                   Emax              74
31  Cn1c(O)nc2cc(-c3ccc(-c4cc5c(CCC(=O)O)n[nH]c5cc4Cl)cc3)ccc21                   Emax              69
